molecular target: UGT1A3 (Homo sapiens, UniProt P35503)
Sequence (P35503 29-534): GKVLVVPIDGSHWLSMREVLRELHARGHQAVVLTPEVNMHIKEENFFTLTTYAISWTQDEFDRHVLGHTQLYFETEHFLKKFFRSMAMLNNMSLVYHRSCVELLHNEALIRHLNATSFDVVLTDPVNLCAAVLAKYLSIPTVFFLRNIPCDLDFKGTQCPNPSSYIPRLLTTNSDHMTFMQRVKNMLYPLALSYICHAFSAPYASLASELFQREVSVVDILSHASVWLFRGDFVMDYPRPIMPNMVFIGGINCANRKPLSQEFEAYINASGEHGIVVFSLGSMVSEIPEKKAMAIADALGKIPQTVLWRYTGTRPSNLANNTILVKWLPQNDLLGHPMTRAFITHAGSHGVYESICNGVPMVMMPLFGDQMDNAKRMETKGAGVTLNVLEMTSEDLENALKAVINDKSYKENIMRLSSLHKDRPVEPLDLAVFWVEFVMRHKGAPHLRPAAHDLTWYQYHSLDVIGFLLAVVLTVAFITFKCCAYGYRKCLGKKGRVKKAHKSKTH
Reported pKi values are given for each entry in this list.
Scale explanation: pKi corresponds to minus log10 of a concentration expressed in moles per litre.

Smiles text | Quantitative result
COc1cc([C@H]2OC[C@H]3[C@@H]2CO[C@@H]3c2cc(OC)c(OC)c(OC)c2)cc(OC)c1OC | 4.18

Okay, now this compound:
Query :: Look up and report pKi, with UGT1A3 (Homo sapiens, UniProt P35503) as system, for COc1ccc([C@H]2OC[C@H]3[C@@H]2CO[C@@H]3c2ccc(OC)c(OC)c2)cc1OC
Result :: 4.40

---

Target: UGT1A9 (Homo sapiens)
Construct: native enzyme in ultrapooled human liver microsomes (Corning 452161), read by mycophenolic acid glucuronidation
Sequence (O60656 26-530): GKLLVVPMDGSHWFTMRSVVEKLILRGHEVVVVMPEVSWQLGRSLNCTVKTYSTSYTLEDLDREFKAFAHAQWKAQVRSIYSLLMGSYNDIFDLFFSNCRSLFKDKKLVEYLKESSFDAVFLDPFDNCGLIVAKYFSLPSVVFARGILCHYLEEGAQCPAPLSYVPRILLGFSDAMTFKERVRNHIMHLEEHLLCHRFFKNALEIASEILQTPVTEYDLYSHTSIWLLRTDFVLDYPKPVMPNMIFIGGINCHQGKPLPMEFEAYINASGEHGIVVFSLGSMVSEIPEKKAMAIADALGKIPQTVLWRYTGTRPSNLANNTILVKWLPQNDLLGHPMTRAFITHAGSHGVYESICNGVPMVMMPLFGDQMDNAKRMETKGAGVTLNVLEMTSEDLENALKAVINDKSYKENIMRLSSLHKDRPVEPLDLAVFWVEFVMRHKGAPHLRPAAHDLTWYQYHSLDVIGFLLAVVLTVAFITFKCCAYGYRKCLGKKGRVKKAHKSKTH
Test: mycophenolic acid glucuronidation in human liver microsomes, cocktail, LC-MS/MS
Assay type: biochemical
Settings: 0.2 µM mycophenolic acid (probe cocktail set B), 5 mM UDPGA, 10 mM MgCl2, alamethicin, pH 7.4, 37 °C, 60 min; read-out: IC50 (μM) / Epimagnolin A
Metric name: IC50

Query :: Assign IC50 to the following record: COc1cc([C@H]2OC[C@H]3[C@@H]2CO[C@@H]3c2cc(OC)c(OC)c(OC)c2)cc(OC)c1OC
Result :: > 200 µM
